System: normal human lung fibroblasts
Assay: Ribosomal profiling: translational efficiency in TGFβ-treated fibroblasts
Assay type: cell-based
Conditions: gene RPS6KA5 (ENSG00000100784); TGFβ-treated fibroblasts
Experimental: Ribosomal profiling allows for measurement of changes in transcription and translation on a genome-wide basis accompanying TGFβ-dependent transformation of fibroblasts to myofibroblasts. Ribosomal profiles of the TGFβ-treated fibroblasts from Example 1 (about 6×10^6 cells/10 cm plate) were prepared and analyzed for changes in translational efficiencies with respect to potential disease-associated cellular changes accompanying this TGFβ-induced transformation. […]
QUANTITY_KIND: effect in renormalizing the translational profile of the gene

> print(dat)
                                   compound           obs.value
1           Cc1cc(C2CCCCC2)n(O)c(=O)c1.NCCO        − (− = <0.9)
2  COC(=O)[C@H]1[C@@H](O)[C@@]2(O)c3c(OC)cc(O[C@@H]4O[C@@H]([C@H](O)CO)CO[C@H]4OC)cc3O[C@@]2(c2ccc(OC)cc2)[C@@H]1c1ccccc1  + (+ = 0.9 to 1.5)
3  CC(C)n1nc(-c2cc3cc(O)ccc3[nH]2)c2c(N)ncnc21  + (+ = 0.9 to 1.5)
4                  Cc1ccc(=O)n(-c2ccccc2)c1        − (− = <0.9)

Next:
Input line: Consider the compound CC(C=CC(=O)NO)=CC(C)C(=O)c1ccc(N(C)C)cc1 (centres unmarked) and give its measured effect in renormalizing the translational profile of the gene.
Output line: − (− = <0.9)

----------
tested on: normal human lung fibroblasts; experiment: Ribosomal profiling: translational efficiency in TGFβ-treated fibroblasts; assay type: cell-based; settings: gene SEMA3A (ENSG00000075213); TGFβ-treated fibroblasts
QUANTITY_KIND: effect in renormalizing the translational profile of the gene

Below, each entry is followed by its recorded effect in renormalizing the translational profile of the gene result.
> print(dat)
                                   compound                  target.entity     obs.value
1           Cc1cc(C2CCCCC2)n(O)c(=O)c1.NCCO  normal human lung fibroblasts  − (− = <0.9)
2  CC(C=CC(=O)NO)=CC(C)C(=O)c1ccc(N(C)C)cc1 (centres unmarked)  normal human lung fibroblasts  − (− = <0.9)
3  COC(=O)[C@H]1[C@@H](O)[C@@]2(O)c3c(OC)cc(O[C@@H]4O[C@@H]([C@H](O)CO)CO[C@H]4OC)cc3O[C@@]2(c2ccc(OC)cc2)[C@@H]1c1ccccc1  normal human lung fibroblasts  − (− = <0.9)
4                  Cc1ccc(=O)n(-c2ccccc2)c1  normal human lung fibroblasts  − (− = <0.9)

Next:
Input line: Consider the compound CC(C)n1nc(-c2cc3cc(O)ccc3[nH]2)c2c(N)ncnc21 and give its measured effect in renormalizing the translational profile of the gene.
Output line: − (− = <0.9)

----------
test system: normal human lung fibroblasts; assay: Ribosomal profiling: translational efficiency in TGFβ-treated fibroblasts; assay type: cell-based; details: ENSG00000147403; TGFβ-treated fibroblasts
QUANTITY_KIND: renormalizing the translational profile of RPL10

> print(dat)
                                   compound           obs.value
1  COC(=O)[C@H]1[C@@H](O)[C@@]2(O)c3c(OC)cc(O[C@@H]4O[C@@H]([C@H](O)CO)CO[C@H]4OC)cc3O[C@@]2(c2ccc(OC)cc2)[C@@H]1c1ccccc1        − (− = <0.9)
2  CC(C=CC(=O)NO)=CC(C)C(=O)c1ccc(N(C)C)cc1 (centres unmarked)  + (+ = 0.9 to 1.5)
3           Cc1cc(C2CCCCC2)n(O)c(=O)c1.NCCO        − (− = <0.9)
4  CC(C)n1nc(-c2cc3cc(O)ccc3[nH]2)c2c(N)ncnc21        − (− = <0.9)

Input line: Consider the compound Cc1ccc(=O)n(-c2ccccc2)c1 and give its measured renormalizing the translational profile of RPL10.
Output line: + (+ = 0.9 to 1.5)

The measured values listed here are drawn from patent US9993494B2.
